# credit: paper PMC9415947

# Target Of Assay: PI3Kα (Homo sapiens)
# Sequence (P42336 whole entry): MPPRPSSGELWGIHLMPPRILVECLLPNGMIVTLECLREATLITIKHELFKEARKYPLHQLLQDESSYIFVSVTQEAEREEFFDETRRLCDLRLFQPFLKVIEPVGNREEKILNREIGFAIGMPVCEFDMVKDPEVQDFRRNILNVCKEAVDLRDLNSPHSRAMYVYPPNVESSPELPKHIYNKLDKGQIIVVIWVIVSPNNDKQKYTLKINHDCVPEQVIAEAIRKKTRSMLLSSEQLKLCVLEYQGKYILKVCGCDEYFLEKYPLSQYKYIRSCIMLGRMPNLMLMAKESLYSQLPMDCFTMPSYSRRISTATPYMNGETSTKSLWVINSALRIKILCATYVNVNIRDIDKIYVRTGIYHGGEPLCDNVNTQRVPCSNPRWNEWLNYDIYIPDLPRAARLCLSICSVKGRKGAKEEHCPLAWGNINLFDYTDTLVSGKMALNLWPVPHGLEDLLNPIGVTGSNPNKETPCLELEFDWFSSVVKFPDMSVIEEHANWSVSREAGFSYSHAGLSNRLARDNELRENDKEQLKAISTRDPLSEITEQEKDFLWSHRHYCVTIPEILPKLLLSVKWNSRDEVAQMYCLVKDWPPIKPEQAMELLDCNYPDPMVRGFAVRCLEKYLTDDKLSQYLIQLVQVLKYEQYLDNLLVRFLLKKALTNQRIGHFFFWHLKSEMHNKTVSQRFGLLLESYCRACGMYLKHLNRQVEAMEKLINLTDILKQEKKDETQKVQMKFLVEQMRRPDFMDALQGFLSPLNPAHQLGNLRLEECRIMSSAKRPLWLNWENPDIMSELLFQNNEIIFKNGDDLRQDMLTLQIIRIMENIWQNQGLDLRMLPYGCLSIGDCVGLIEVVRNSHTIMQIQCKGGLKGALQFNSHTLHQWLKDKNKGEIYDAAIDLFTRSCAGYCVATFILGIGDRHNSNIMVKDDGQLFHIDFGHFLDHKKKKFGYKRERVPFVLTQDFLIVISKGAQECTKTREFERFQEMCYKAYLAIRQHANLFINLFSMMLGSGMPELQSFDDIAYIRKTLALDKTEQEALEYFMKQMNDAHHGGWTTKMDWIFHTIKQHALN
# Sequence (P27986 whole entry partner): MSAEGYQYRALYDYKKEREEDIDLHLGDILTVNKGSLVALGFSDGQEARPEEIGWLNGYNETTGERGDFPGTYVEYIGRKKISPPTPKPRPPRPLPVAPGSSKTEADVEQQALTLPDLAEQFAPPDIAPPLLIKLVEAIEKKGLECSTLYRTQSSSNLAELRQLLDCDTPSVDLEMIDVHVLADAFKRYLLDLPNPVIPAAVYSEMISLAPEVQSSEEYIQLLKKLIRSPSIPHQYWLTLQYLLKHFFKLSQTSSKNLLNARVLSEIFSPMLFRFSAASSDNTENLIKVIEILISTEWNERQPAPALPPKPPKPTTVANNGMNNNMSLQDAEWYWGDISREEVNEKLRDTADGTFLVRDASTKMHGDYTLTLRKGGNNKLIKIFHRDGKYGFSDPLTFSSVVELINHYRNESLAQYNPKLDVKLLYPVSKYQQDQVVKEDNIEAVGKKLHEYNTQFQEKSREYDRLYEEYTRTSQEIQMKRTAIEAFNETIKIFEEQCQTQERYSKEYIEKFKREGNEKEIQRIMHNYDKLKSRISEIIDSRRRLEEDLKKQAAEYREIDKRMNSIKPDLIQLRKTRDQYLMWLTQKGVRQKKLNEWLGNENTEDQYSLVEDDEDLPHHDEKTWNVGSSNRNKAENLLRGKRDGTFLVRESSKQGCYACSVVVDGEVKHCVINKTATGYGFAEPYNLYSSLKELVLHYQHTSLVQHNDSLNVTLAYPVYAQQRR
Test Readout: IC50 (nM)
Give bare numbers, in nM.

Example cases with answers are listed next.
{"Structure String": "CC(C)(C(N)=O)N1CCN(Cc2cc3nc(-n4c(C(F)F)nc5ccccc54)cc(N4CCOCC4)n3n2)CC1", "IC50 / nM": 624}
{"Structure String": "O=C(C1CC1)N1CCN(Cc2cc3nc(-n4c(C(F)F)nc5ccccc54)cc(N4CCOCC4)n3n2)CC1", "IC50 / nM": 73}
{"Structure String": "Cc1nc2ccccc2n1-c1cc(N2CCOCC2)n2nc(CN3CCN(C(C)(C)C)CC3)cc2n1", "IC50 / nM": 10600}
{"Structure String": "CCc1nc2ccccc2n1-c1cc(N2CCOCC2)n2nc(CN3CCN(C(C)(C)C)CC3)cc2n1", "IC50 / nM": 28700}
{"Structure String": "CC(C)(C)N1CCN(Cc2cc3nc(-n4c(C(F)F)nc5ccccc54)cc(N4CCOCC4)n3n2)CC1", "IC50 / nM": 1430}

Please examine the following record next.
Incoming: Item CS(=O)(=O)N1CCN(Cc2cc3nc(-n4c(C(F)F)nc5ccccc54)cc(N4CCOCC4)n3n2)CC1 has what recorded IC50?
Outgoing: 44

----------
# Assay Procedure: Kinetic solubility, shake-flask protocol
# Assay type: physicochemical
# Condition Set: aqueous buffer, kinetic from dmso stock; phosphate-buffered saline pH 7.4, 25 °C
Test Readout: solubility kinetic at 24 h

Incoming: Requested read-out: solubility kinetic at 24 h. Entry: CC(C)(C)N1CCN(Cc2cc3nc(-n4c(C(F)F)nc5ccccc54)cc(N4CCOCC4)n3n2)CC1 [Compound 6]
Outgoing: > 500 µM

----------
Provide the reported IC50 of each item.
# Target Of Assay: PI3Kδ (Homo sapiens, UniProt O00329)
# Construct: purchased Merck Millipore
# Sequence (O00329 whole entry, looked up): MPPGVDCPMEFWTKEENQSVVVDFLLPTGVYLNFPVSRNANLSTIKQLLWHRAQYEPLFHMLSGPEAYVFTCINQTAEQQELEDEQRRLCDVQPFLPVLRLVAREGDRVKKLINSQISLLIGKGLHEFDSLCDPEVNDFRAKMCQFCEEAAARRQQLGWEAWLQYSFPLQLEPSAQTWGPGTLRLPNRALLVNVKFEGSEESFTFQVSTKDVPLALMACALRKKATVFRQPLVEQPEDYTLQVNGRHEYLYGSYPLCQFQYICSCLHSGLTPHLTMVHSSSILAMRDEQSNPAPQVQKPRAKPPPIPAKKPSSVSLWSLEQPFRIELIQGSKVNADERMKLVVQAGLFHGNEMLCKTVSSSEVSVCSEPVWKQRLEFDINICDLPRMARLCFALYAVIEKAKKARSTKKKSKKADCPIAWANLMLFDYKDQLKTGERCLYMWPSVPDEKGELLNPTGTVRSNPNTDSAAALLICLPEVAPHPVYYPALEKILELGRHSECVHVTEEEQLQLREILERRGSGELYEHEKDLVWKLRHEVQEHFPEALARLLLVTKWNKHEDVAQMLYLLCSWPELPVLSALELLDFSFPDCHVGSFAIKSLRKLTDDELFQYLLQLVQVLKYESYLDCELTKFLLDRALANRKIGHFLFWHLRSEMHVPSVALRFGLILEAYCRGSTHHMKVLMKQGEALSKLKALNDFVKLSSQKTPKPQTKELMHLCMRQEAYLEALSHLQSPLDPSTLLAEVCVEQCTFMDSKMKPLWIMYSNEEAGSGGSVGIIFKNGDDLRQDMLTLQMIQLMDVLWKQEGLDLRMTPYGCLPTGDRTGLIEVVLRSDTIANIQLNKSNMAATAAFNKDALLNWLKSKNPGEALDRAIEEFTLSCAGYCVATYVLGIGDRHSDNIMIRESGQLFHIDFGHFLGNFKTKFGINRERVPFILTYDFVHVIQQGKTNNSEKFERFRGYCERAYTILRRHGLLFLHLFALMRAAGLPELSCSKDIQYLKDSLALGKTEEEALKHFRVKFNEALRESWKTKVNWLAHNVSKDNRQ
# Assay Procedure: In vitro PI3K inhibition assay (ADP-Glo kinase assay), PI3Kδ
# Assay type: biochemical
# Condition Set: mean of two independent experiments
Your answer should be a number followed by the unit of measure.

Some compounds with known IC50 results, for comparison:
{"Compound": "O=C(c1cc2nc(-n3c(C(F)F)nc4ccccc43)cc(N3CCOCC3)n2n1)N1CCC(CO)CC1", "Readout Value": "90 nM"}
{"Compound": "CC(C)(O)C1CCN(C(=O)c2cc3nc(-n4c(C(F)F)nc5ccccc54)cc(N4CCOCC4)n3n2)CC1", "Readout Value": "101 nM"}
{"Compound": "CNC(=O)CN1CCN(Cc2cc3nc(-n4c(C(F)F)nc5ccccc54)cc(N4CCOCC4)n3n2)CC1", "Readout Value": "63 nM"}

For the 3 compounds below, give their IC50 values.
1. O[C@H]1CCN(Cc2cc3nc(-n4c(C(F)F)nc5ccccc54)cc(N4CCOCC4)n3n2)C1
2. FC(F)c1nc2ccccc2n1-c1cc(N2CCOCC2)n2nc(CN3CCC(F)(F)CC3)cc2n1
3. O=C(c1cc2nc(-n3c(C(F)F)nc4ccccc43)cc(N3CCOCC3)n2n1)N1CCC(N2CCOCC2)CC1

Outgoing:
["956 nM", "443 nM", "92 nM"]

For each of the items listed, what is its IC50?
1. Cc1nc2ccccc2n1-c1cc(N2CCOCC2)n2nc(CN3CCN(C(C)(C)C)CC3)cc2n1
2. CC(C)(C)N1CCN(Cc2cc3nc(-n4c(C(F)(F)F)nc5ccccc54)cc(N4CCOCC4)n3n2)CC1
3. CC(C)N1CCN(C(=O)c2cc3nc(-n4c(C(F)F)nc5ccccc54)cc(N4CCOCC4)n3n2)CC1
4. NC1CCN(C(=O)c2cc3nc(-n4c(C(F)F)nc5ccccc54)cc(N4CCOCC4)n3n2)C1 (stereo not drawn)
5. C[C@H]1COCCN1Cc1cc2nc(-n3c(C(F)F)nc4ccccc43)cc(N3CCOCC3)n2n1
6. CC(C)N1CCN(Cc2cc3nc(-n4c(C(F)F)nc5ccccc54)cc(N4CCOCC4)n3n2)CC1

Outgoing:
1: 236 nM; 2: 907 nM; 3: 271 nM; 4: 1700 nM; 5: 254 nM; 6: 38 nM

Each of the following entries comes with a recorded value; kindly state IC50 for each.
1. CS(=O)(=O)N1CCN(Cc2cc3nc(-n4c(C(F)F)nc5ccccc54)cc(N4CCOCC4)n3n2)CC1
2. CN1CCN(Cc2cc3nc(-n4c(C(F)F)nc5ccccc54)cc(N4CCOCC4)n3n2)CC1
3. CC(C)(C(N)=O)N1CCN(C(=O)c2cc3nc(-n4c(C(F)F)nc5ccccc54)cc(N4CCOCC4)n3n2)CC1
4. CC(C)(O)C1CCN(Cc2cc3nc(-n4c(C(F)F)nc5ccccc54)cc(N4CCOCC4)n3n2)CC1
5. O=C(C1CC1)N1CCN(Cc2cc3nc(-n4c(C(F)F)nc5ccccc54)cc(N4CCOCC4)n3n2)CC1
6. FC(F)c1nc2ccccc2n1-c1cc(N2CCOCC2)n2nc(CN3CCC(N4CCOCC4)CC3)cc2n1
7. Cc1nc2ccccc2n1-c1cc(N2CCOCC2)n2nc(CN3CCC(C(C)(C)O)CC3)cc2n1
8. FC(F)c1nc2ccccc2n1-c1cc(N2CCOCC2)n2nc(CNC3CCOCC3)cc2n1

Outgoing:
1. 43 nM
2. 351 nM
3. 74 nM
4. 52 nM
5. 24 nM
6. 276 nM
7. 878 nM
8. 1810 nM
